Test system: S. mansoni newly transformed schistosomula (NTS)
Assay: Phenotypic screen with newly transformed schistosomula (NTS)
Type: cell-based
Settings: 1 μM compound, 48 h; scale 0 to 4
# reported schistosomula severity score; entries follow
metric: schistosomula severity score

molecule=COC1=CC(=O)N(C(=O)/C=C/[C@H](Cc2ccccc2)NC(=O)[C@H](CC(C)C)NC(=O)[C@H](CC(C)C)OC(=O)[C@H](C(C)C)N(C)C)[C@H]1CC(C)C result_number=3
molecule="CC[C@H](C)[C@@H](C(=O)O[C@@H](CC(C)C)C(=O)N[C@@H](CC(C)C)C(=O)N[C@@H](C)/C=C/C(=O)N1C(=O)C=C(OC)[C@@H]1C)N(C)C [gallinamide A]" result_number=2
molecule="CCC(C)C(C(=O)OC(CC(C)C)C(=O)NC(CC(C)C)C(=O)NC(C=CC(=O)N1C(=O)C=C(OC)C1C)Cc1ccccc1)N(C)C (stereo not drawn)" result_number=4
